# PROTOCOL: qHTS assay to test for compound auto fluorescence at 590 nm (red) in HepG2 cells (AID 720674)
# STUDY CONDITIONS: HepG2 autofluorescence, red 540/590 nm, 1 h; series mostly up to 91.3 µM
# Text: U.S. Tox21 Program National Center for Advancing Translational Sciences [NCATS] NIH Chemical Genomics Center [NCGC] U.S. Environmental Protection Agency [EPA] National Institutes of Environmental Health Sciences [NIEHS] National Toxicology Program [NTP] U.S. Food and Drug Administration [FDA] Tox21 Assay Overview: Compound auto fluorescence often interferes with screening of the compound library against various biological targets and signaling pathways. […] This assay includes the red fluorescence data. […]
Calls of active or inactive are those of the source. The call rests on the fitted dose curve; in most records, active means well fitted curve in the direction sought with a large enough effect in the repeat runs; inconclusive means weak or mixed curves; inactive means flat fitted curve, though single readings scatter.
QUANTITY KIND: outcome

COMPOUND | RECORDED VALUE
C[C@]12CC[C@@H]3c4ccc(O)cc4CC[C@H]3[C@@H]1CCC2=O | inactive
O=C(O)CCCCC1CCSS1 (stereo not drawn) | inactive
Cc1cnc(NC(=O)C2=C(O)c3ccccc3S(=O)(=O)N2C)s1 | inactive

* * *

# TARGET UNDER TEST: Vitamin D3 receptor (Homo sapiens)
# PROTOCOL: qHTS assay to identify small molecule agonists of the vitamin D receptor (VDR) signaling pathway (AID 743222)
# STUDY CONDITIONS: HEK293T VDR-UAS-bla, beta-lactamase FRET ratio, 16 h; series mostly up to 63.5 µM
Results filed as inconclusive are left out. The source made the active and inactive calls. The call rests on the fitted dose curve.
QUANTITY KIND: outcome

Reference set (5 entries):
COMPOUND | outcome
CCN1CCCC1=O | inactive
CCCCOC(=O)CCCCCCCCC(=O)OCCCC | inactive
CC(=O)c1ccc(S(=O)(=O)NC(=O)NC2CCCCC2)cc1 | inactive
CC(O)COc1ccccc1 (configuration not stated) | inactive
CO[C@H]1C=CO[C@@]2(C)Oc3c(C)c(O)c4c(O)c(c(/C=N/N5CCN(C)CC5)c(O)c4c3C2=O)NC(=O)/C(C)=C\C=C[C@H](C)[C@H](O)[C@@H](C)[C@@H](O)[C@@H](C)[C@H](OC(C)=O)[C@@H]1C | inactive

Vitamin D3 receptor (Homo sapiens) data for COc1cc(C=O)ccc1O ; its outcome: inactive

outcome of COC(=O)c1ccc(C=O)cc1 , assay on Vitamin D3 receptor (Homo sapiens), is inactive

Record C=CCOC(=O)CC(C)C ; system Vitamin D3 receptor (Homo sapiens); outcome = inactive

Entry CC(=O)OC/C=C(C)/C=C/C=C(C)/C=C/C1=C(C)CCCC1(C)C ; assay system Vitamin D3 receptor (Homo sapiens); outcome recorded at inactive

# outcome measured on Vitamin D3 receptor (Homo sapiens) for item Cc1c(N(C)C)c(=O)n(-c2ccccc2)n1C = inactive

Item CC1(C)O[C@@H]2[C@@H](CO[C@@]3(COS(N)(=O)=O)OC(C)(C)O[C@@H]23)O1 ; assay system Vitamin D3 receptor (Homo sapiens); outcome reported as inactive

Tested on Vitamin D3 receptor (Homo sapiens): OC[C@@H](O)[C@@H](O)[C@H](O)[C@H](O)CO . Observed outcome: inactive

outcome on Vitamin D3 receptor (Homo sapiens) for Cn1cnc2c1c(=O)[nH]c(=O)n2C is inactive

Case COc1cc2c(c(OC)c1OC)-c1ccc(OC)c(=O)cc1[C@@H](NC(C)=O)CC2 , Vitamin D3 receptor (Homo sapiens), outcome recorded as inactive

* * *

# TARGET UNDER TEST: Nuclear receptor subfamily 1 group I member 2 (Homo sapiens)
# PROTOCOL: Human pregnane X receptor (PXR) small molecule agonists, qHTS assay (AID 1346982); further: nearly all actives have a fitted effect of over 35% in size
# STUDY CONDITIONS: PXR-Luc HepG2, CYP3A4 luciferase reporter, 24 h; series mostly up to 92.4 µM
Records with an inconclusive call do not appear. Calls of active or inactive are those of the source. Calls come from the whole dose curve; as a rule, active = well fitted activation curve with a large enough effect in the repeat runs; inconclusive = weak or mixed curves; inactive = no such curve, though single readings can be large or run the other way.
Thanks in advance; please answer with one of these: yes = active, no = inactive

Look over these answered cases.
COMPOUND | CLASS
NC(=O)c1ccc([N+](=O)[O-])cc1Cl | no
C/C=C/c1ccc(O)c(OC)c1 | no
O=c1cc[nH]c(=O)[nH]1 | no
CC1(C)O[C@@H]2[C@@H](CO[C@@]3(COS(N)(=O)=O)OC(C)(C)O[C@@H]23)O1 | no
COc1ccccc1NC(=O)CC(C)=O | yes

-- ask Test call, this compound: CC(C)Cc1ccc(C(C)C(=O)O)cc1 (stereo not given)
-- reply no

-- ask Recorded call for COc1ccccc1O ?
-- reply no

* * *

# PROTOCOL: qHTS assay to identify small molecule antagonists of the progesterone receptor (PR) signaling pathway - cell viability counter screen (AID 1346798);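 further: HEK293T PR-UAS-bla cells stimulated with the agonist R5020; nearly all actives have a fitted effect of over 50% in size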
# STUDY CONDITIONS: PR-UAS-bla HEK293T viability, CellTiter-Glo luminescence, 16 h; series mostly up to 92.4 µM
Records with an inconclusive call do not appear. The source made the active and inactive calls. The call rests on the fitted dose curve; in most records, active means well fitted cell-killing curve with a large enough effect in the repeat runs; inconclusive means weak or mixed curves, or effect the other way; inactive means no such curve, though single readings can be large or run the other way.
Answer with one of the outcomes given here: T = active, F = inactive

MOLECULE | CLASS
Nc1ccc(N=Nc2ccccc2)c(N)n1 | F

-- ask Name the outcome recorded for O=C(O)CN(CC(=O)O)CC(=O)O in the assay.
-- reply F

-- ask Name the outcome recorded for CCCCCCCCOc1ccc(C(=O)c2ccccc2)c(O)c1 in the assay.
-- reply F

-- ask Query: recorded result category for CCCCOCCOCCOC(C)=O in this test
-- reply F

-- ask Per the assay record, what outcome was assigned to C[C@]12CC[C@@H]3c4ccc(O)cc4CC[C@H]3[C@@H]1CCC2=O ?
-- reply F

* * *

# PROTOCOL: Human pregnane X receptor (PXR) small molecule agonists, qHTS cell viability counter screen (AID 1346977); further: nearly all actives have a fitted effect of over 50% in size
# STUDY CONDITIONS: PXR-Luc HepG2 viability, CellTiter-Fluor, 24 h; series mostly up to 92.4 µM
Results filed as inconclusive are left out. Calls of active or inactive are those of the source. Calls come from the whole dose curve; as a rule, active = well fitted cell-killing curve with a large enough effect in the repeat runs; inconclusive = weak or mixed curves, or effect the other way; inactive = flat fitted curve, though single readings scatter.
QUANTITY KIND: outcome

Example entries begin here.
MOL | RECORDED VALUE
N[C@@H](Cc1c[nH]c2ccc(O)cc12)C(=O)O | inactive
CC1=NN(c2ccccc2)C(=O)C1 | inactive
O=C(O)CN(CC(=O)O)CC(=O)O | inactive
C[C@]12C=CC(=O)C=C1CC[C@@H]1[C@@H]2C(=O)C[C@@]2(C)[C@H]1CC[C@]2(O)C(=O)CO | inactive

Field outcome (entry COc1cc(O)c(C(=O)c2ccccc2)cc1S(=O)(=O)O ) reads inactive

Quick note, outcome for CC1(C)O[C@@H]2[C@@H](CO[C@@]3(COS(N)(=O)=O)OC(C)(C)O[C@@H]23)O1 landed at inactive

* * *

# PROTOCOL: Human pregnane X receptor (PXR) small molecule agonists, qHTS cell viability counter screen (AID 1346977); further: nearly all actives have a fitted effect of over 50% in size
# STUDY CONDITIONS: PXR-Luc HepG2 viability, CellTiter-Fluor, 24 h; series mostly up to 92.4 µM
Inconclusive results are not listed. Activity calls are given as the source filed them. Calls come from the whole dose curve; as a rule, active = well fitted cell-killing curve with a large enough effect in the repeat runs; inconclusive = weak or mixed curves, or effect the other way; inactive = flat fitted curve, though single readings scatter.
QUANTITY KIND: outcome

MOL | RECORDED VALUE
Cc1ccc(O)c(-n2nc3ccccc3n2)c1 | inactive
C=C(C)C(N)=O | inactive
CC1=C(/C=C/C(C)=C/C=C/C(C)=C/C(=O)O)C(C)(C)CCC1 | inactive
OCCCc1ccccc1 | inactive

Documented outcome of COc1ccc(O)cc1 : inactive

* * *

# PROTOCOL: qHTS assay for identifying genotoxic compounds that show differential cytotoxicity against isogenic chicken DT40 cell lines with known DNA damage response pathways - Rev3 mutant cell line (AID 743014); further: nearly all actives have a fitted effect of over 55% in size
# STUDY CONDITIONS: chicken DT40 Rev3-/- viability, CellTiter-Glo, 40 h; series mostly up to 68.4 µM
Records with an inconclusive call do not appear. Activity calls are given as the source filed them. Calls follow the shape of the dose curve; as a rule, active = well fitted cell-killing curve with a large enough effect in the repeat runs; inconclusive = weak or mixed curves, or effect the other way; inactive = no such curve, though single readings can be large or run the other way.
Pick from Yes (active), No (inactive) when you respond.

Completed entries (count: 8):
MOLECULE | CLASS
O=C(OCc1ccccc1)c1ccccc1 | No
COCC(C)N (stereo not given) | No
Nc1ccc(N=Nc2ccccc2)c(N)n1 | Yes
CCCCCCCC(=O)OCC(O)CO (stereo not given) | No
N[C@@H](Cc1c[nH]c2ccc(O)cc12)C(=O)O | No
CCCCOCCOCCSC#N | No
CCCCNC(=O)NS(=O)(=O)c1ccc(N)cc1 | No
CC(C)CC(C)CC(O)CC(C)C (stereo not given) | No

-- ask Could you please tell me the result logged for CCOCCO in this assay?
-- reply No

-- ask GET /call?item= CC(C)(C)NCC(O)c1ccc(O)c(CO)c1 (stereo not given) returns the recorded outcome of this test.
-- reply No

-- ask Test call for this molecule, please: O=c1cc[nH]c(=O)[nH]1
-- reply No

-- ask How was COCCOCCOC classified in this test?
-- reply No

-- ask Hi, do you know how CCCCOCCOCCOC(C)=O came out in this test?
-- reply No

* * *

# TARGET UNDER TEST: Nuclear receptor subfamily 1 group I member 2 (Homo sapiens) (UniProt O75469)
# Sequence (O75469 whole entry, looked up): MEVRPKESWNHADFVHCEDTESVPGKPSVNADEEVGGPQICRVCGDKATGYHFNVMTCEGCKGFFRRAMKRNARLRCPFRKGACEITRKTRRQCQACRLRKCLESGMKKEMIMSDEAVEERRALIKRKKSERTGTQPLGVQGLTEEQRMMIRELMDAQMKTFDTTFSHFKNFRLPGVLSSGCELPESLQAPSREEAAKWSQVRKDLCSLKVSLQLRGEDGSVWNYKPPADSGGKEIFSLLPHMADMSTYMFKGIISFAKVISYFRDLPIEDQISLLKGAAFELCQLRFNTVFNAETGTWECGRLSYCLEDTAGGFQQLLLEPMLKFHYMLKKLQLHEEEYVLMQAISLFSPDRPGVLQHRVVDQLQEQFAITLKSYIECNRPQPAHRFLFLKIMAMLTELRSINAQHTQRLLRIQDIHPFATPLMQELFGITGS
# PROTOCOL: Human pregnane X receptor (PXR) activation by small molecules, qHTS assay (AID 1346985); further: nearly all actives have a fitted effect of over 40% in size
# STUDY CONDITIONS: DPX-2 HepG2 CYP3A4-luciferase, 24 h; series mostly up to 38.3 µM
Records with an inconclusive call do not appear. Active and inactive are the calls of the source. Calls come from the whole dose curve; as a rule, active = well fitted activation curve with a large enough effect in the repeat runs; inconclusive = weak or mixed curves; inactive = flat fitted curve, though single readings scatter.
Please reply with one of these outcomes: active, inactive

Would you please look over these solved cases?
COMPOUND | CLASS
COc1cc(O)c(C(=O)c2ccccc2)cc1S(=O)(=O)O | inactive
CCCCCCCCOc1ccc(C(=O)c2ccccc2)c(O)c1 | inactive
Cc1ccc(O)c(-n2nc3ccccc3n2)c1 | active
C#C[C@]1(O)CC[C@H]2[C@@H]3CCC4=CC(=O)CC[C@@H]4[C@H]3CC[C@@]21CC | inactive
CC(O)COc1ccccc1 (configuration not stated) | inactive

-- ask Dear colleague, could you share the recorded outcome for C[C@]12C[C@H](O)[C@H]3[C@@H](CCC4=CC(=O)CC[C@@]43C)[C@@H]1CC[C@@H]2C(=O)CO when you have a moment?
-- reply inactive

-- ask Assay outcome for OC[C@@H](O)[C@@H](O)[C@H](O)[C@H](O)CO : what was it?
-- reply inactive
